Values from ChEMBL document CHEMBL3430912

# TESTED_SYSTEM: Sterol 14-alpha demethylase (Trypanosoma cruzi (strain CL Brener))
# Sequence (Q7Z1V1 whole entry): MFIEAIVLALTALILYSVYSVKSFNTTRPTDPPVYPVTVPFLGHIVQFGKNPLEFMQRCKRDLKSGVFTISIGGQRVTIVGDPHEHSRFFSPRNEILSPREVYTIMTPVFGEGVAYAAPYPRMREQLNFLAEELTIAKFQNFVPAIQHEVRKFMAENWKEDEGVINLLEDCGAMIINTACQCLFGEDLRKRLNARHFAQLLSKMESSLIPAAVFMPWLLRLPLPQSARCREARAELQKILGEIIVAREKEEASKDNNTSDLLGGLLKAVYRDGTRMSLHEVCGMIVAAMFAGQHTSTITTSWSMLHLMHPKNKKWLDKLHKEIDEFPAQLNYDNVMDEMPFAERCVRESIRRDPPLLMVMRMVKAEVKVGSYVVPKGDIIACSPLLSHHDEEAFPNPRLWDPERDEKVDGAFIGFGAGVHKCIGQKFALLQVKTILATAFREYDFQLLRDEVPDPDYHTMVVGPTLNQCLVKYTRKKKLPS
# ASSAY_EXPLANATION: GSK_TCAKS: pIC50 CYP51 from Trypanosoma cruzi.
Can you tell me pIC50 for the items I'm about to list?
// pIC50: -log10(molar conc.)

Record summary for CS(=O)(=O)c1ccc(Nc2nccc(-c3cnn4ncccc34)n2)cc1 : reported pIC50 = 4.80

Record summary for Nc1nccc(-c2csc(Nc3ccc(Cl)cc3)n2)n1 : reported pIC50 = 5.90

Record summary for CCc1ccccc1[C@@H](C)NC(=O)c1cnc2c(cnn2CC)c1NC1CCN(C(N)=O)CC1 : reported pIC50 = 4.10

Record summary for N#Cc1ccc(Br)cc1[N+](=O)[O-] : reported pIC50 = 4.30

Record summary for O=C(Nc1cccc(S(=O)(=O)Nc2ccc(Br)cc2)c1)c1ccc([N+](=O)[O-])s1 : reported pIC50 = 5.60

Record summary for Cc1nc(C(=O)Nc2ccc3c(c2)OCO3)nn1-c1ccc(Cl)cc1 : reported pIC50 = 4.50

Record summary for Cc1ccc2ccc(C(Nc3ccccn3)c3cccnc3)c(O)c2n1 (stereo unspecified) : reported pIC50 = 7.30

Record summary for COCCn1cnc2cc(NC(=O)C3CCCCC3)cc(C(=O)N3CCc4sccc4C3)c21 : reported pIC50 = 4.30

Record summary for COc1ccccc1C=CCN1C[C@H]2CCC[C@@H](C1)C2(O)c1cccnc1 (stereo partly specified) : reported pIC50 = 6.90

Record summary for CC(Cn1ccnc1)NC(=O)COc1ccc(Cl)c(Cl)c1 (stereo unspecified) : reported pIC50 = 7.20

Record summary for O=C(NC(c1ccc(Cl)cc1)c1cnccn1)C1CCN(C(=O)Nc2cccc(C(F)(F)F)c2)CC1 (stereo unspecified) : reported pIC50 = 6.90

Record summary for COc1cnc2ccc(=O)n(CCN3CCC(NC(=O)Cc4ccc(Cl)c(Cl)c4)CC3)c2c1 : reported pIC50 = 6.10

====

# ASSAY_EXPLANATION: GSK_TCAKS: pIC50 HepG2 human cell line viability assay using luminiscence. […] Seeding density was checked to ensure that new mono-layers were not more than 50% confluent at the time of harvesting. Cell suspension was added to 500 mL of the same medium at a final density of 1.2 * 10^5 cells/mL. This cell suspension was dispensed (25 uL, 3000 cells per well) into 384-well clear-bottom plates using a Multidrop Combi dispenser. Prior to addition of the cell suspension, the screening compounds (250 nL) were pre-dispensed into the plates with an Echo liquid handler. Plates were incubated for 48 h at 37C, 5% CO2. After incubation, plates equilibrated at room temperature for 30 min before proceeding to develop the luminescent signal. The signal developer, CellTiter-Glo Reagent, was allowed to equilibrate at room temperature for 30 min and added to the plates (25uL per well) using a Multidrop Combi dispenser. Plates were left for 10 min at room temperature for stabilization and then read using a ViewLux.
# Type: toxicity, cell-based
METRIC: IC50 at 48 h

Record summary for O=C(CN1CCN(S(=O)(=O)c2cccc([N+](=O)[O-])c2)CC1)Nc1ccc(Oc2ccccc2)cc1 : reported IC50 at 48 h = > 100 µM

Record summary for N#Cc1cccc(CNc2ccc(-c3cnn(CC4CC4)c(=O)c3C#N)cc2)c1 : reported IC50 at 48 h = > 100 µM

Record summary for CC(=O)Nc1ccc(-c2noc(CC3CCCN(Cc4cccc(F)c4C)C3)n2)cc1 (stereo unspecified) : reported IC50 at 48 h = > 100 µM

Record summary for O=C(Nc1nc2ccccc2[nH]1)c1c(O)c2cccc3c2n(c1=O)CC3 : reported IC50 at 48 h = 10 µM

Record summary for Nc1nc(-c2ccccn2)nc(N)c1Cc1c(F)cccc1Cl : reported IC50 at 48 h = 20 µM

Record summary for CNc1cncc(C2CCCN2C(=O)Cc2ccc3ccccc3c2)n1 (stereo unspecified) : reported IC50 at 48 h = > 100 µM

Record summary for c1cncc(CN(Cc2ccco2)Cc2c[nH]nc2-c2cccs2)c1 : reported IC50 at 48 h = > 100 µM

Record summary for Cc1ccccc1CNc1cc(C2CC2)nc(-c2nccn2C)n1 : reported IC50 at 48 h = 15.8 µM

Record summary for O=c1cc(NCCCNCc2c[nH]c3ccc(Br)cc23)[nH]c2ccccc12 : reported IC50 at 48 h = > 100 µM

Record summary for Fc1ccccc1N1C[C@H]2CCN(c3cccnc3)C[C@H]2C1 : reported IC50 at 48 h = > 100 µM

Record summary for COc1cccc(S(=O)(=O)Nc2ccc3c(c2)CC(N2CCC(NC(=O)C4CC4)CC2)C3)c1 (stereo unspecified) : reported IC50 at 48 h = > 100 µM

Record summary for COc1ccc2ncc(Cl)c(CCN3CC[C@H](NCc4cc5c(cn4)OCS5)[C@@H](O)C3)c2n1 : reported IC50 at 48 h = 25.1 µM

Record summary for CCN(CC)S(=O)(=O)c1ccc(Cn2nc(C(=O)Nc3ccncn3)c3ccccc32)cc1 : reported IC50 at 48 h = > 100 µM

Record summary for CCCCn1nnnc1CSc1nc(C)cc(C)c1C#N : reported IC50 at 48 h = > 100 µM

Record summary for CN(Cc1ccc(C(N)=O)cc1)C(c1ccc(F)cc1)c1cccnc1 (stereo unspecified) : reported IC50 at 48 h = > 100 µM

Record summary for Cc1cc(N(C)C)nc2ccc(Cc3cnc(N)nc3N)cc12 : reported IC50 at 48 h = 31.6 µM

Record summary for Cc1cc(C)cc(NS(=O)(=O)c2cc(-c3cc(C)n[nH]3)ccc2C)c1 : reported IC50 at 48 h = 63.1 µM

Record summary for O=S(=O)(NCC(c1cccnc1)N1CCN(c2ccccc2F)CC1)c1ccc(F)cc1 (stereo unspecified) : reported IC50 at 48 h = > 100 µM

Record summary for c1ccc2sc(Nc3nc4ncccc4[nH]3)nc2c1 : reported IC50 at 48 h = 20 µM

Record summary for O=C(Nc1ccc(C(F)(F)F)cc1)Nc1cccc([N+](=O)[O-])c1 : reported IC50 at 48 h = 10 µM

Record summary for COc1ccc(NS(=O)(=O)c2cc(NC(=O)Cc3ccc(C)cc3)ccc2N2CCOCC2)cc1 : reported IC50 at 48 h = > 100 µM

====

# ASSAY_EXPLANATION: GSK_TCAKS: pIC50 HepG2 human cell line viability assay using luminiscence. […] Seeding density was checked to ensure that new mono-layers were not more than 50% confluent at the time of harvesting. Cell suspension was added to 500 mL of the same medium at a final density of 1.2 * 10^5 cells/mL. This cell suspension was dispensed (25 uL, 3000 cells per well) into 384-well clear-bottom plates using a Multidrop Combi dispenser. Prior to addition of the cell suspension, the screening compounds (250 nL) were pre-dispensed into the plates with an Echo liquid handler. Plates were incubated for 48 h at 37C, 5% CO2. After incubation, plates equilibrated at room temperature for 30 min before proceeding to develop the luminescent signal. The signal developer, CellTiter-Glo Reagent, was allowed to equilibrate at room temperature for 30 min and added to the plates (25uL per well) using a Multidrop Combi dispenser. Plates were left for 10 min at room temperature for stabilization and then read using a ViewLux.
# Type: toxicity, cell-based
Friendly reminder: IC50 at 48 h below 30 µM is class 1, at or above is class 0.

I'd appreciate it if you could check whether CCCCN(C(=O)c1ccc(NC(=O)C(C)C)cc1)c1ccccc1 has IC50 at 48 h smaller than 30 µM.
class 0

I'd appreciate it if you could check whether O=C(Nc1nc(-c2ccc(S(=O)(=O)N3CCOCC3)cc2)cs1)c1ccc([N+](=O)[O-])cc1 has IC50 at 48 h smaller than 30 µM.
class 0

I'd appreciate it if you could check whether Cc1ccc2sc(NC(=O)Cn3cnc([N+](=O)[O-])n3)nc2c1 has IC50 at 48 h smaller than 30 µM.
class 0

I'd appreciate it if you could check whether O=C(Nc1cccc(Cl)c1)Nc1ccc([N+](=O)[O-])cc1Cl has IC50 at 48 h smaller than 30 µM.
class 0

I'd appreciate it if you could check whether CC(C)CC(=O)NC(c1cccs1)c1ccc2cccnc2c1O (stereo not given) has IC50 at 48 h smaller than 30 µM.
class 0

I'd appreciate it if you could check whether Cc1ccc(S(C)(=O)=O)cc1Nc1nccc(-c2sc(N)nc2-c2ccccc2)n1 has IC50 at 48 h smaller than 30 µM.
class 0

I'd appreciate it if you could check whether CNS(=O)(=O)c1ccccc1Nc1nc(Nc2ccnn2C)ncc1Cl has IC50 at 48 h smaller than 30 µM.
class 0

I'd appreciate it if you could check whether CN(C)Cc1cccc(Nc2nccc(-c3ccc(NCCN)c(C#N)c3)n2)c1 has IC50 at 48 h smaller than 30 µM.
class 1

I'd appreciate it if you could check whether Cc1cccc(N2CCCN(Cc3c[nH]c4ccccc34)CC2)n1 has IC50 at 48 h smaller than 30 µM.
class 1

I'd appreciate it if you could check whether Nc1nc(-c2ccccn2)nc(-n2nc(-c3ccccc3)cc2N)n1 has IC50 at 48 h smaller than 30 µM.
class 1
